Values from BigSolDB 2.1

- conditions-used: in ethanol, 293.15 K
measurement-name: solubility (mole fraction)
Lab note: record just the number, no unit beside it.

Would you kindly share the measured solubility (mole fraction) for NC(=O)c1ccc([N+](=O)[O-])cc1 ?
0.00231

* * *

- conditions-used: in isopropanol, 288.15 K
measurement-name: solubility (mole fraction)
Lab note: record just the number, no unit beside it.

Would you kindly share the measured solubility (mole fraction) for NC(=O)c1ccc([N+](=O)[O-])cc1 ?
0.0015

* * *

- conditions-used: in water, 293.15 K
measurement-name: solubility (mole fraction)
Lab note: record just the number, no unit beside it.

Would you kindly share the measured solubility (mole fraction) for NC(=O)c1ccc([N+](=O)[O-])cc1 ?
0.000498

* * *

- conditions-used: in ethanol, 288.15 K
measurement-name: solubility (mole fraction)

Would you kindly share the measured solubility (mole fraction) for NC(=O)c1ccc([N+](=O)[O-])cc1 ?
0.00182

* * *

- conditions-used: in isobutanol, 298.15 K
measurement-name: solubility (mole fraction)
Lab note: record just the number, no unit beside it.

Would you kindly share the measured solubility (mole fraction) for NC(=O)c1ccc([N+](=O)[O-])cc1 ?
0.0015

* * *

- conditions-used: in n-butanol, 318.15 K
measurement-name: solubility (mole fraction)
Lab note: record just the number, no unit beside it.

Would you kindly share the measured solubility (mole fraction) for NC(=O)c1ccc([N+](=O)[O-])cc1 ?
0.00213

* * *

- conditions-used: in DMF, 283.15 K
measurement-name: solubility (mole fraction)
Lab note: record just the number, no unit beside it.

Would you kindly share the measured solubility (mole fraction) for NC(=O)c1ccc([N+](=O)[O-])cc1 ?
0.037
